Experiment: aqueous kinetic solubility
measured quantity: Sol.

Ask: Provide measured Sol. value, entry: `COc1ccc([C@H]2N=C(Nc3nc4cccc(N)c4o3)NC(C)=C2C(=O)Nc2cc(C(=O)O)ccn2)c(Cl)c1`
Result: >81 µg/mL

Ask: Provide measured Sol. value, entry: CC1=C(C(=O)Nc2cc(C(=O)O)ccn2)C(c2ccc(C#N)cc2Cl)N=C(Nc2nc3ccc(F)cc3o2)N1 (stereo not shown)
Result: >81 µg/mL

Ask: Provide measured Sol. value, entry: CC1=C(C(=O)Nc2cc(C(=O)O)ccn2)C(c2cccc(C(N)=O)c2)N=C(Nc2nc3ccc(F)cc3o2)N1 (stereo not shown)
Result: >78 µg/mL

Ask: Provide measured Sol. value, entry: CC1=C(C(=O)Nc2cc(C(=O)O)ccn2)C(c2ccc(C)cc2Cl)N=C(Nc2nc3ncccc3o2)N1 (stereo not shown)
Result: >51 µg/mL

====

Biological target: recombinant mouse GALK1 (Mus musculus)
Sequence (Q9R0N0 whole entry): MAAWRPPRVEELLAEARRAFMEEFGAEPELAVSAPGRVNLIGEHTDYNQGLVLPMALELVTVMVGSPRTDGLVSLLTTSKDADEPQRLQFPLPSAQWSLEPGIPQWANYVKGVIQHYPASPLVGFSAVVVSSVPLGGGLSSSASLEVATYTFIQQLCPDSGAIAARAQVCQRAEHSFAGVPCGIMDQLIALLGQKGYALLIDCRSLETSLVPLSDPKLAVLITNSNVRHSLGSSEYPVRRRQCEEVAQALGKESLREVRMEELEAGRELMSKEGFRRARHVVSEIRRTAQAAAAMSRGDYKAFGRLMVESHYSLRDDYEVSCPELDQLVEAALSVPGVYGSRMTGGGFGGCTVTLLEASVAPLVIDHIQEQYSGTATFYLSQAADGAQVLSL
Test: mGALK1 biochemical activity assay (Kinase-Glo Plus, ATP depletion)
Conditions: recombinant mouse GALK1, Kinase-Glo Plus ATP depletion; bracketed figure in the cell, e.g. (−1.2), is not defined in the text shown; read-out: mGALK
measured quantity: pIC50
When answering, recall that pIC50 equals minus log10 of the concentration in mol/L, and write that number alone.

Ask: State, for recombinant mouse GALK1 (Mus musculus), measured pIC50 of the compound listed here: COc1ccc(Cl)c(C2N=C(Nc3nc4ccccc4o3)NC(C)=C2C(=O)Nc2nncs2)c1 (stereo not shown)
Result: 4.76

Ask: State, for recombinant mouse GALK1 (Mus musculus), measured pIC50 of the compound listed here: O=C1CC(C(=O)Nc2nncs2)CC2=C1C(c1ccccc1Cl)N=C(Nc1nc3ccccc3o1)N2 (stereo not shown)
Result: 4.91

Ask: State, for recombinant mouse GALK1 (Mus musculus), measured pIC50 of the compound listed here: `CC1=C(C(=O)Nc2nncs2)C2(CCCC2)N=C(Nc2nc3ccccc3o2)N1`
Result: 4.71

Ask: State, for recombinant mouse GALK1 (Mus musculus), measured pIC50 of the compound listed here: O=C1NCCC2=C1C(c1ccccc1Cl)N=C(Nc1nc3ccccc3o1)N2 (stereo not shown)
Result: 4.66

Ask: State, for recombinant mouse GALK1 (Mus musculus), measured pIC50 of the compound listed here: CN(C)CCNC(=O)C1CC(=O)C2=C(C1)NC(Nc1nc3ccccc3o1)=NC2c1ccccc1Cl (stereo not shown)
Result: 4.91

Ask: State, for recombinant mouse GALK1 (Mus musculus), measured pIC50 of the compound listed here: CC1=C(C(=O)Nc2nncs2)C(c2nn(C)cc2Cl)N=C(Nc2nc3ccccc3o2)N1 (stereo not shown)
Result: 4.76

Ask: State, for recombinant mouse GALK1 (Mus musculus), measured pIC50 of the compound listed here: `CC1=C(C(=O)Nc2nncs2)C2(CCSCC2)N=C(Nc2nc3ccccc3o2)N1`
Result: 4.61

Ask: State, for recombinant mouse GALK1 (Mus musculus), measured pIC50 of the compound listed here: O=C1CC(C(=O)N2CCNCC2)CC2=C1C(c1ccccc1Cl)N=C(Nc1nc3ccccc3o1)N2 (stereo not shown)
Result: 5.11

Ask: State, for recombinant mouse GALK1 (Mus musculus), measured pIC50 of the compound listed here: O=C(Nc1nncs1)C1=C(c2cnccn2)NC(Nc2nc3ccccc3o2)=NC1c1ccccc1Cl (stereo not shown)
Result: 4.66

Ask: State, for recombinant mouse GALK1 (Mus musculus), measured pIC50 of the compound listed here: CC1=C(C(=O)Nc2nncs2)C(c2ccc(Cl)cc2Cl)N=C(Nc2nc3ccccc3o2)N1 (stereo not shown)
Result: 5.21

Ask: State, for recombinant mouse GALK1 (Mus musculus), measured pIC50 of the compound listed here: O=C(Nc1nncs1)C1=C(C(F)(F)F)NC(Nc2nc3ccccc3o2)=NC1c1ccccc1Cl (stereo not shown)
Result: 4.76

Ask: State, for recombinant mouse GALK1 (Mus musculus), measured pIC50 of the compound listed here: CC1=C(C(=O)Nc2nncs2)C(c2nn(C)cc2Br)N=C(Nc2nc3ccccc3o2)N1 (stereo not shown)
Result: 4.71

Ask: State, for recombinant mouse GALK1 (Mus musculus), measured pIC50 of the compound listed here: CC1=C(C(=O)Nc2nncs2)C(c2ncccc2Cl)N=C(Nc2nc3ccccc3o2)N1 (stereo not shown)
Result: 4.71

Ask: State, for recombinant mouse GALK1 (Mus musculus), measured pIC50 of the compound listed here: CC1=C(C(=O)Nc2nncs2)C(c2n[nH]cc2Br)N=C(Nc2nc3ccccc3o2)N1 (stereo not shown)
Result: 4.71

Ask: State, for recombinant mouse GALK1 (Mus musculus), measured pIC50 of the compound listed here: CC1=C(C(=O)Nc2nncs2)C(c2ccccc2C(F)(F)F)N=C(Nc2nc3ccccc3o2)N1 (stereo not shown)
Result: 4.91

Ask: State, for recombinant mouse GALK1 (Mus musculus), measured pIC50 of the compound listed here: CC1=C(C(=O)Nc2nncs2)C(c2ccc(C)cc2Cl)N=C(Nc2nc3ccccc3o2)N1 (stereo not shown)
Result: 5.21

====

Target: hGALK1m (Homo sapiens, UniProt P51570, E253A/K252A)
Construct: made in house; host or cells: E. coli HMS174
Sequence (P51570 whole entry K252A/E253A): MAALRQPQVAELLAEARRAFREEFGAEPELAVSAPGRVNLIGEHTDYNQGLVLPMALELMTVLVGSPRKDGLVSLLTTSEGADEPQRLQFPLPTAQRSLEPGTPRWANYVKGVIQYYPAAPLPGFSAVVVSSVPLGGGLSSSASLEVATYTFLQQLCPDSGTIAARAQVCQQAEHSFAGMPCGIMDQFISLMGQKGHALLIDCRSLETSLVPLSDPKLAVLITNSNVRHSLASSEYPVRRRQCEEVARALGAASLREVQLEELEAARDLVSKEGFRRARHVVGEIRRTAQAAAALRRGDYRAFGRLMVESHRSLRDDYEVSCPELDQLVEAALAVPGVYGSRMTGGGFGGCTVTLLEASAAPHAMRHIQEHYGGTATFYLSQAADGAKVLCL
Assay: in vitro hGALK1 activity assay of the structure-based optimisation (Example 12, Tables 17-20)
Format: biochemical
Details: 1 h; Table 17; read-out: Efficacy
measured quantity: Emax (%)
Use % as the unit, but write only the number.

Ask: Provide measured Emax value, entry: CC1=C(C(=O)NCc2cncs2)C(c2ccccc2Cl)N=C(Nc2nc3ccccc3o2)N1 (stereo not shown)
Result: 84

Ask: Provide measured Emax value, entry: CC1=C(C(=O)Nc2ccc(C(=O)O)cc2)C(c2ccccc2Cl)N=C(Nc2nc3ccccc3o2)N1 (stereo not shown)
Result: 100

Ask: Provide measured Emax value, entry: CC1=C(C(=O)Nc2cc(C(=O)O)ccn2)C(c2ccccc2Cl)N=C(Nc2nc3ccccc3o2)N1 (racemic)
Result: 88

Ask: Provide measured Emax value, entry: CC1=C(C(=O)Nc2nnc(C)s2)C(c2ccccc2Cl)N=C(Nc2nc3ccccc3o2)N1 (stereo not shown)
Result: 95

====

Target: recombinant mouse GALK1 (Mus musculus)
Test: mGALK1 biochemical activity assay (Kinase-Glo Plus, ATP depletion)
Conditions: recombinant mouse GALK1, Kinase-Glo Plus ATP depletion; read-out: mGALK
Hi there, I'd appreciate the recorded pIC50 for every entry that follows.
When answering, recall that pIC50 equals minus log10 of the concentration in mol/L, and write that number alone.

Ask: Provide measured pIC50 value, entry: CC1=C(C(=O)Nc2cccc(C(N)=O)c2)C(c2ccccc2Cl)N=C(Nc2nc3ccccc3o2)N1 (stereo not shown)
Result: 4.76

Ask: Provide measured pIC50 value, entry: CC1=C(C(=O)Nc2ccc(CN3CCOCC3)cc2)C(c2ccccc2Cl)N=C(Nc2nc3ccccc3o2)N1 (stereo not shown)
Result: 5.01

Ask: Provide measured pIC50 value, entry: CC1=C(C(=O)Nc2ccccn2)C(c2ccccc2Cl)N=C(Nc2nc3ccccc3o2)N1 (stereo not shown)
Result: 4.96

Ask: Provide measured pIC50 value, entry: CC1=C(C(=O)NCc2c(C)nn(C)c2C)C(c2ccc(C)cc2Cl)N=C(Nc2nc3cccc(N)c3o2)N1 (stereo not shown)
Result: 5.16

Ask: Provide measured pIC50 value, entry: CC1=C(C(=O)Nc2ccc(C(=O)O)nc2)C(c2ccccc2Cl)N=C(Nc2nc3ccccc3o2)N1 (stereo not shown)
Result: 5.01

Ask: Provide measured pIC50 value, entry: COC(=O)c1ccnc(NC(=O)C2=C(C)NC(Nc3nc4cccc(N)c4o3)=NC2c2ccc(C)cc2Cl)c1 (stereo not shown)
Result: 5.15

Ask: Provide measured pIC50 value, entry: CC1=C(C(=O)Nc2cc(C(=O)O)ccn2)C(c2ccc(C)cc2Cl)N=C(Nc2nc3ncccc3o2)N1 (stereo not shown)
Result: 4.71

====

Biological target: recombinant human GALK1 (Homo sapiens)
Sequence (P51570 whole entry): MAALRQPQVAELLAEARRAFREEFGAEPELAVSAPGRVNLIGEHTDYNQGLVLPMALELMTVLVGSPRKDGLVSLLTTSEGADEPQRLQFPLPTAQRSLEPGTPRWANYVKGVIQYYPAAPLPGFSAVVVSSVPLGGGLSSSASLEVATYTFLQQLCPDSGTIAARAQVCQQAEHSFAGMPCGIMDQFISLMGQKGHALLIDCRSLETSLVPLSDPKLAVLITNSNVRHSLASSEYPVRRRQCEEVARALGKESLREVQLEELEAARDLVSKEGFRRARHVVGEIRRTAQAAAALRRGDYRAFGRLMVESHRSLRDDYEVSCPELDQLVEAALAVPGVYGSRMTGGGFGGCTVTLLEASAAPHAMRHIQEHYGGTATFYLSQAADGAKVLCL
Assay: hGALK1 biochemical activity assay (Kinase-Glo Plus, ATP depletion)
Settings: recombinant human GALK1, Kinase-Glo Plus ATP depletion; read-out: hGALK
pIC50: −log10 of the molar value.
# binarize pIC50: threshold 5 inclusive, high side true (1), low side false (0)

Ask: Would you say CC1=C(C(=O)Nc2cc(C(=O)O)ccn2)C(c2ccc(-n3cccn3)cc2Cl)N=C(Nc2nc3ccc(F)cc3o2)N1 (centres unmarked) [Compound 60] shows pIC50 at minimum 5?
Result: true (1)

Ask: Would you say COc1ccc2oc(NC3=NC(c4ccccc4Cl)C(C(=O)Nc4cc(C(=O)O)ccn4)=C(C)N3)nc2c1 (centres unmarked) [Compound 5] shows pIC50 at minimum 5?
Result: true (1)

Ask: Would you say COC(=O)c1ccc(NC(=O)C2=C(C)NC(Nc3nc4ccccc4o3)=NC2c2ccccc2Cl)cn1 (centres unmarked) [Compound 166] shows pIC50 at minimum 5?
Result: true (1)

Ask: Would you say CC1=C(C(=O)Nc2nnc(-c3cccnc3)s2)C(c2ccccc2Cl)N=C(Nc2nc3ccccc3o2)N1 (centres unmarked) [Compound 180] shows pIC50 at minimum 5?
Result: true (1)

Ask: Would you say CC1=C(C(=O)Nc2nncs2)C(c2ccccc2Cl)N=C(Nc2nc3ccccc3o2)N1 (centres unmarked) [Compound 205] shows pIC50 at minimum 5?
Result: true (1)

Ask: Would you say CC1=C(C(=O)Nc2ccc(C(=O)O)cn2)C(c2ccccc2Cl)N=C(Nc2nc3ccc(F)cc3o2)N1 (centres unmarked) [Compound 26] shows pIC50 at minimum 5?
Result: true (1)

Ask: Would you say CC1=C(C(=O)Nc2cc(C(=O)O)ccc2C)C(c2ccccc2Cl)N=C(Nc2nc3ccc(F)cc3o2)N1 (centres unmarked) [Compound 28] shows pIC50 at minimum 5?
Result: true (1)

Ask: Would you say CC1=C(C(=O)Nc2nnc(-c3cccnc3)s2)C(c2ccccc2Cl)N=C(Nc2nc3ccc(Cl)cc3o2)N1 (centres unmarked) [Compound 94] shows pIC50 at minimum 5?
Result: false (0)

Ask: Would you say COP(=O)(OC)C1=C(C)NC(Nc2nc3ccccc3o2)=NC1c1ccccc1Cl (centres unmarked) [Compound 242] shows pIC50 at minimum 5?
Result: false (0)

Ask: Would you say CC1=C(C(=O)Nc2cc(C(=O)O)ccn2)C(c2ccc(C)cc2Cl)N=C(Nc2ncc(-c3ccccc3)o2)N1 (centres unmarked) [Compound 103] shows pIC50 at minimum 5?
Result: false (0)

Ask: Would you say CC1=C(C(=O)NCc2cncs2)C(c2ccccc2Cl)N=C(Nc2nc3ccccc3o2)N1 (centres unmarked) [Compound 232] shows pIC50 at minimum 5?
Result: true (1)

Ask: Would you say CC1=C(C(=O)Nc2ccccn2)C(c2ccccc2Cl)N=C(Nc2nc3cccc(N)c3o2)N1 (centres unmarked) [Compound 81] shows pIC50 at minimum 5?
Result: true (1)

Ask: Would you say CC1=C(C(=O)Nc2cccc(-c3cn[nH]c3)c2)C(c2ccccc2Cl)N=C(Nc2nc3ccccc3o2)N1 (centres unmarked) [Compound 178] shows pIC50 at minimum 5?
Result: false (0)

Ask: Would you say CC1=C(C(=O)Nc2cc(C(=O)O)ccn2)C(c2ccc(-c3cnc(C)nc3)cc2Cl)N=C(Nc2nc3ccc(F)cc3o2)N1 (centres unmarked) [Compound 71] shows pIC50 at minimum 5?
Result: true (1)

Ask: Would you say CC1=C(C(=O)Nc2ccc(-c3cn[nH]c3)cc2)C(c2ccccc2Cl)N=C(Nc2nc3ccccc3o2)N1 (centres unmarked) [Compound 179] shows pIC50 at minimum 5?
Result: true (1)

Ask: Would you say CCn1cc(CNC(=O)C2=C(C)NC(Nc3nc4ccc(F)c(N)c4o3)=NC2c2ccccc2Cl)cn1 (centres unmarked) [Compound 136] shows pIC50 at minimum 5?
Result: true (1)

Ask: Would you say CC1=C(C(=O)Nc2cc(C(=O)O)ccn2)C(c2ccccc2Cl)N=C(Nc2nc3ccc(Cl)cc3o2)N1 (centres unmarked) [Compound 14] shows pIC50 at minimum 5?
Result: true (1)

Ask: Would you say CC1=C(C(=O)Nc2nnc(-c3cccnc3)s2)C(c2ccccc2Cl)N=C(Nc2nc3cc(Cl)ccc3o2)N1 (centres unmarked) [Compound 98] shows pIC50 at minimum 5?
Result: true (1)

Ask: Would you say CC1=C(C(=O)Nc2cc(C(=O)O)ccn2)C(c2ccc(-c3ccc(C(F)(F)F)nc3)cc2Cl)N=C(Nc2nc3ccc(F)cc3o2)N1 (centres unmarked) [Compound 70] shows pIC50 at minimum 5?
Result: true (1)

Ask: Would you say CC1=C(C(=O)NCc2cnn(C)c2)C(c2ccc(C)cc2Cl)N=C(Nc2nc3ccc(F)c(N)c3o2)N1 (centres unmarked) [Compound 126] shows pIC50 at minimum 5?
Result: true (1)

Ask: Would you say CCOc1ccc(C2N=C(Nc3nc4ccc(F)cc4o3)NC(C)=C2C(=O)Nc2cc(C(=O)O)ccn2)c(Cl)c1 (centres unmarked) [Compound 67] shows pIC50 at minimum 5?
Result: true (1)

Ask: Would you say CC1=C(C(=O)NCc2c(C)nn(C)c2C)C(c2ccc(C)cc2Cl)N=C(Nc2nc3cccc(N)c3o2)N1 (centres unmarked) [Compound 113] shows pIC50 at minimum 5?
Result: true (1)

Ask: Would you say CC1=C(C(=O)Nc2cc(C(=O)O)ccc2F)C(c2ccccc2Cl)N=C(Nc2nc3ccccc3o2)N1 (centres unmarked) [Compound 210] shows pIC50 at minimum 5?
Result: true (1)

Ask: Would you say CC1=C(C(=O)Nc2cc(C(N)=O)ccn2)C(c2ccccc2Cl)N=C(Nc2nc3ccccc3o2)N1 (centres unmarked) [Compound 212] shows pIC50 at minimum 5?
Result: true (1)

Ask: Would you say CC1=C(C(=O)NCc2cnn(C)c2)C(c2ccc(F)cc2Cl)N=C(Nc2nc3cccc(N)c3o2)N1 (centres unmarked) [Compound 119] shows pIC50 at minimum 5?
Result: true (1)
